# Assay protocol: folding stability dG unfold (combined trypsin and chymotrypsin); higher = more stable

{"Sequence entry": "SAGGSAGGSAGGSPLTLTRTLTLTRTTTDPDVPGTTTTETRTLTLTTELTLPPLPPGTPSAGGSAGGSAGGS [r4_231_TrROS_Hall]", "Measurement qualifier": "<", "folding stability dG unfold [kcal/mol]": -1}
{"Sequence entry": "SMTLITLTDPVTNVPVEKVEVRKLEDGTYEATVTTKEPSKTTTKTYPLPPDEKITDVLKSLGLKEAEINLSA [r9_492_JUSTAS]", "Measurement qualifier": "=", "folding stability dG unfold [kcal/mol]": 0.445}
{"Sequence entry": "SAGGVPLLSAELLTTDETGNRTYRLVYYDPSTGKVYEVVVSQPFPTGDFNPFLFTASSLEEALELVTSSAGG [r13_26_TrMRF]", "Measurement qualifier": "=", "folding stability dG unfold [kcal/mol]": 2.7}
{"Sequence entry": "SAGGSAGGSAGKLRVRIPPRLRERLRKRKRVRLRLRVEEREVRDEDGNLRRVRRLEIELESAGGSAGGSAGG [r11_113_TrROS_Hall]", "Measurement qualifier": "=", "folding stability dG unfold [kcal/mol]": 1.42}
{"Sequence entry": "SAGGSAGMPSVPVERTVTVTVVDAEGNLVGTVTLTLTFPGGVSEEEREAAIAAAIEAAVPPAGVVSSAGGSA [r15_310_JUSTAS]", "Measurement qualifier": "=", "folding stability dG unfold [kcal/mol]": 2.41}
{"Sequence entry": "SAGGSAKKKEVKELTLVIKVKTEEEALKAAEELIRKLLPPDAEIVEVKVEKVKPGEVYITVKVRLKSAGGSA [r15_183_TrROS_Hall]", "Measurement qualifier": "=", "folding stability dG unfold [kcal/mol]": 3.67}
{"Sequence entry": "SAGGNKTREREIPIPPGDSPDQAVDRVLEELEKHPDNNNVNINFRHPNGMPIKIRVTPNGKITEVEPYSAGG [r13_690_TrROS]", "Measurement qualifier": "<", "folding stability dG unfold [kcal/mol]": -1}

====

# Assay protocol: folding stability dG unfold from chymotrypsin proteolysis; higher = more stable
Catalogue of sequences with associated folding stability dG unfold

{"Sequence entry": "SAGGSAMIKIKLPNGEVAEIELSPDGKKVLIRYKDGSIEEIEIKDGKITKIKPLPNAPPNAEIVEVSAGGSA [r15_709_TrROS_Hall]", "folding stability dG unfold": "2.72 kcal/mol"}
{"Sequence entry": "SMTPEEARALAEAIAAERAAAGYATEMELTVTPVNGVPVATFRFRFTDAAGRATEFTVTVAPDGTVTFTPSA [r9_1027_JUSTAS]", "folding stability dG unfold": "3.81 kcal/mol"}
{"Sequence entry": "SAGDALKDIFPGLEIEPHEKPVKVPPGKPVEFAFIIRMPDGEIMIFDMHFNPGGEVRVRVLTIKLPEKSAGG [r19_125_TrROS]", "folding stability dG unfold": "4.81 kcal/mol"}
{"Sequence entry": "SAKGTLELTFPTTKVTVEVEKVDPVNNKVYARAVFPNGFVVDAVFDPKTGKVYVEVKEVKPTKDGGYSLSAG [r14_466_TrMRF]", "folding stability dG unfold": "1.46 kcal/mol"}
{"Sequence entry": "SAGSAEEIAKKLAEELRKAGYEVKVKVVEVEKVGDGKVVVRVEIEVTYYDKNGKPVKKERFELTIVLPSAGG [r19_418_TrROS_Hall]", "folding stability dG unfold": "4.69 kcal/mol"}
{"Sequence entry": "SAGGSAGGSSVEVTEDPSTGKLTVTVPPDLTSVTIKEKDKTITIPLPPGASITLPSGTVTVALSAGGSAGGS [r20_26_JUSTAS]", "folding stability dG unfold": "-0.168 kcal/mol"}
{"Sequence entry": "SAGGMKIVEITEEVPPGAVVRITFEDGSKREIKIPNVAELKGKKITLELPGLKVVKIEVVPAKEGEEVSAGG [r13_587_TrROS_Hall]", "folding stability dG unfold": "1.69 kcal/mol"}
{"Sequence entry": "SAGGKNITIDDITFQPQRDNGKPRYYMEVKVELPNGNPIPITMPMDRMQNNGMSPKTFAKWIAKWLLSAGGS [r16_625_TrROS]", "folding stability dG unfold": "1.5 kcal/mol"}
{"Sequence entry": "SAGKYIMHPIKAGAEIKITIPPEGYRIKIGMYYPNGGKMEEHEVPIKPGKTLEFKIPDPNFFVMIEPEPSAG [r5_797_TrROS]", "folding stability dG unfold": "1.57 kcal/mol"}
{"Sequence entry": "SEEEIEERIKKLAEELGFKVTEIKIEKTDNKLTVTVTITLPNGKKLTFTVTRDKNGKLTFTPEQLKKALKSA [r9_85_TrROS_Hall]", "folding stability dG unfold": "3.61 kcal/mol"}
{"Sequence entry": "SAGMTLIIRVKVYNKDGELVEEREIEVPNMSVEEIAEALKKLPNVEKVKIEVFNADGEKKEIEIEVKPSAGG [r19_269_TrROS_Hall]", "folding stability dG unfold": "4.43 kcal/mol"}
{"Sequence entry": "SEPLTPEEVEKFAEWIAKELNEEHGKEVKVEVEYHPDDGYFRAEIEIPNGRRIEITFNPEFGQLDIEVEDSA [r9_9_TrROS]", "folding stability dG unfold": "2.36 kcal/mol"}
{"Sequence entry": "SAGGSAGGSKITSIEEKDGFVRITIEVDGKTETKTIPKENLPPNITFPPGAKVKIEKVSKEDLSAGGSAGGS [r12_1005_TrROS_Hall]", "folding stability dG unfold": "1.74 kcal/mol"}
{"Sequence entry": "SAGGSAGGSAKSVVRIKIYNKKTGKVLEIEIPENMTEEEIKKLAEELAKKNNVEIVEVEKVPSAGGSAGGSA [r18_322_TrROS_Hall]", "folding stability dG unfold": "2.99 kcal/mol"}
{"Sequence entry": "SAGGSAGGMHINAPGSIEELEEKLGGPIAEATLEGPGTFTLTLENGVPITVSFDDPEQLEELIESAGGSAGG [r6_13_TrMRF]", "folding stability dG unfold": "0.243 kcal/mol"}
{"Sequence entry": "SAGMTALFTDSSGKEVTFSHPNLELTVDPETGVVSAYEPESNLKVEVKVAPDKVTVTVYSGSSSKEIPLSAG [r5_786_JUSTAS]", "folding stability dG unfold": "0.956 kcal/mol"}
{"Sequence entry": "SAGGSAGGSAGMKTITKKVKSEEEAKKLAEELKKKGYKVEVEVKKDPKTGNYIVTITIELPESAGGSAGGSA [r18_455_JUSTAS]", "folding stability dG unfold": "3.89 kcal/mol"}
{"Sequence entry": "SAGGSAGGMEKYKVTITIERPDPNNPDVKTTEVTEVVLTPEEIEKLKKELAPTGYRVEITVIDESAGGSAGG [r6_857_JUSTAS]", "folding stability dG unfold": "2.51 kcal/mol"}
{"Sequence entry": "SKGKKVLVIPATLPEAEEIAKALGLPPSLFPSSKKLVDALKEAFPENVVVVVAPAKPVTEEELKALAEGKSA [r9_74_TrMRF]", "folding stability dG unfold": "0.93 kcal/mol"}
{"Sequence entry": "SAGGSAGGSAPGKHKTIEINGPGDVEEAVDYAKDEMPPGKPIHIRFNDEPITIPAEDAKKISAGGSAGGSAG [r3_50_TrROS]", "folding stability dG unfold": "0.445 kcal/mol"}
{"Sequence entry": "SKKKVTININITPGDPEQMEENVRWAIKEAAENDPDKEVTITIHFPPGHPEWMRWIKELFTKKGIPITIHSA [r9_1202_TrROS]", "folding stability dG unfold": "3.3 kcal/mol"}
{"Sequence entry": "SAGGMKVTILEVKPDEVVVKTSDGKTYVFPEVIKELKEKGGGVLPTKEEIAEYLKKNNIPVDDVEFGLSAGG [r13_610_JUSTAS]", "folding stability dG unfold": "1.9 kcal/mol"}
{"Sequence entry": "TTVTTPKNGLININLTDKKGNKYTFTAPVKDPVETLEKLKKLIKDLFPEYKDVKVKVVSVDGINIKVVVDIS [r1_389_TrMRF]", "folding stability dG unfold": "3.57 kcal/mol"}
{"Sequence entry": "SAGGSAGGGKMEYDPKDGTMRWRDPANGIEHESRIEIPPIVIPADDLPKLREQFPPDMPVVLAGSAGGSAGG [r6_104_TrROS]", "folding stability dG unfold": "0.94 kcal/mol"}
{"Sequence entry": "SAGGSMTEEERRALAEEIAKEVAEKISEEEGIPVKEILSIEVHPDGSVTITIKFPGTEGERTITIPRSAGGS [r16_622_JUSTAS]", "folding stability dG unfold": "2.38 kcal/mol"}
{"Sequence entry": "SAGSRTVTLTFYRPLSRPPGGAPVVREAERTVTLNLPDDTLSEEEIEALAEELRAEHPDVEVEITIDDSAGG [r19_369_JUSTAS]", "folding stability dG unfold": "1.41 kcal/mol"}
{"Sequence entry": "SAGGSAGGSAKRTIFIPAEDLQKNPDNAEELAQTIAEEFNDNGKEIKIEQHPDGGVVIELKSAGGSAGGSAG [r3_75_TrROS]", "folding stability dG unfold": "-0.3 kcal/mol"}
